FYI, the data here is from the supplement of paper PMC10567573.

B1: NECAB1 (parent)
chain: NLDTEELCEYFSQHLGEYENVLAA

variants of: B1; assay: protein stability index of a GFP-peptide fusion (GPS, HEK-293T) (PSI 1-6); higher = more stable; conditions: c terminus: a fixed tail appended;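 also: lentivirally expressed fusions sorted by FACS into six bins by GFP to DsRed ratio, PSI derived from sequencing read proportions per bin multiplied by bin number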
Measured Endpoint: protein stability index
Answers are plain numbers.

Example entries begin here.
NLDTEELCEYFSQGLGEYENVLAA [H14G] = 3.81
WLDTEELCEYFSQHLGEYENVLAA [N1W] = 1.71
NLDTEELCEYFSQHLGEYENVVAA [L22V] = 3.26

For each of the variants below, state protein stability index.
1. NLDTEELCEYFSQHLGTYENVLAA [E17T]
2. NLDTEELCEYFSQHLSEYENVLAA [G16S]
3. NLTTEELCEYFSQHLGEYENVLAA [D3T]
4. NLDTEELCEYFSQHLGEYENVEAA [L22E]
5. CLDTEELCEYFSQHLGEYENVLAA [N1C]
6. NLDTEELCEYFSQHLGEYENVPAA [L22P]

A.
1. 2.51
2. 2.48
3. 2.57
4. 4.42
5. 2.67
6. 4.25

For each of the variants below, state protein stability index.
1. NLDTEEHCEYFSQHLGEYENVLAA [L7H]
2. NLDTEELCEYFSQHLGEAENVLAA [Y18A]
3. NLDTEELCEYFSQHLGEYENVSAA [L22S]
4. NLDTEELCEYFSQHLGEIENVLAA [Y18I]
5. NLDTEELCEYFSQHSGEYENVLAA [L15S]
6. NLDTEELCEYFSQHLGEGENVLAA [Y18G]

A.
[4.63, 4.2, 4.64, 2.07, 3.47, 4.46]
